Values from paper PMC10458307

# target: isolated human 20S proteasome, CT-L activity (Homo sapiens, UniProt P20618+P28074)
# Construct: human purified erythrocyte-derived 20S proteasome; purchased Enzo Life Sciences, Inc; host or cells: human erythrocytes (natural source)
# protocol_summary: Proteasome inhibition assay in isolated human 20S proteasomes (Proteasome-Glo), CT-L activity
# Format: biochemical

smiles_repr: Cc1ccc(/C(=N/NS(=O)(=O)c2ccc([N+](=O)[O-])cc2)Sc2cc(Cl)c(C)cc2S(N)(=O)=O)cc1
unit_abbrev: µM
IC50: 49.3

----------
# protocol_summary: Cell viability, MTT assay, Jurkat
# Type: cell-based, human
# conditions_used: human, Jurkat E6.1 T-cell leukemia cells, at 100 µM, read-out: percentage of cell viability, MTT, Jurkat

molecule: C#CCCN1CCN(c2ccc(-n3c(=O)ccc4cnc5ccc(-c6ccc(N)nc6)cc5c43)cc2C(F)(F)F)CC1 [Compound 4]
viability at 72 h, 100 µM: 0%
//
molecule: CC(C)c1nc(CN(C)C(=O)N[C@@H](CCN2CCOCC2)C(=O)N[C@H](CC[C@H](Cc2ccccc2)NC(=O)OCc2cncs2)Cc2ccccc2)cs1 [Compound 5, cobicistat, reference compound]
viability at 72 h, 100 µM: 0%
//
molecule: O=C1c2ccccc2C(=O)c2c(Nc3ccc(S(=O)(=O)N(CCO)CCO)cc3)ccc(O)c21 [Compound 2]
viability at 72 h, 100 µM: 77.2%
//
molecule: Cc1ccc(/C(=N/NS(=O)(=O)c2ccc([N+](=O)[O-])cc2)Sc2cc(Cl)c(C)cc2S(N)(=O)=O)cc1 [Compound 3]
viability at 72 h, 100 µM: 86%
//
molecule: Cc1ccc2ccccc2c1CSc1ncnc2c1ncn2C1OC(CO)C(O)C1O (stereo not drawn) [Compound 1]
viability at 72 h, 100 µM: 21%
//
molecule: CC(C)C[C@H](NC(=O)[C@H](Cc1ccccc1)NC(=O)c1cnccn1)B(O)O [Bortezomib, bortezomib, reference compound]
viability at 72 h, 100 µM: 0%

----------
Listing of recorded percentage of proteasome inhibition, C-L, cell lysates Jurkat by entry.
# target: 20S proteasome in Jurkat cell lysates, C-L activity (Homo sapiens)
# Sequence (P28072 35-239 limits assumed): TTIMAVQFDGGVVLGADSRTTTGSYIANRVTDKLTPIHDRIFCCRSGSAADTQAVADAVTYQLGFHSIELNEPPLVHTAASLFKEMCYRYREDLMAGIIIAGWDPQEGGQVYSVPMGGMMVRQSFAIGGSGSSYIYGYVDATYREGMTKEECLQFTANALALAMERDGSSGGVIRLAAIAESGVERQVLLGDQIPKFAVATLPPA
# Sequence (Q99436 44-277 partner): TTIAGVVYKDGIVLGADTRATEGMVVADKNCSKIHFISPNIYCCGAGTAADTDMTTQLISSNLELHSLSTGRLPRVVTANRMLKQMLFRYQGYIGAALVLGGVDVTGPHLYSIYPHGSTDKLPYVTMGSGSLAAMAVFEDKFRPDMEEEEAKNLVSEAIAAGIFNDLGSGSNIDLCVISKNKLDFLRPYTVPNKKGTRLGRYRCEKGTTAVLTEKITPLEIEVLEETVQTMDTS
# protocol_summary: Proteasome inhibition assay in cell lysates, Jurkat, C-L
# conditions_used: at 100 µM; Table 2 legend: bortezomib 10 µM
endpoint_name: percentage of proteasome inhibition, C-L, cell lysates Jurkat (%)

molecule: Cc1ccc2ccccc2c1CSc1ncnc2c1ncn2C1OC(CO)C(O)C1O (centres unmarked)
target: 20S proteasome in Jurkat cell lysates, C-L activity (Homo sapiens)
value: 19
//
molecule: CC(C)c1nc(CN(C)C(=O)N[C@@H](CCN2CCOCC2)C(=O)N[C@H](CC[C@H](Cc2ccccc2)NC(=O)OCc2cncs2)Cc2ccccc2)cs1 [Compound 5, cobicistat, reference compound]
target: 20S proteasome in Jurkat cell lysates, C-L activity (Homo sapiens)
value: 36
//
molecule: C#CCCN1CCN(c2ccc(-n3c(=O)ccc4cnc5ccc(-c6ccc(N)nc6)cc5c43)cc2C(F)(F)F)CC1
target: 20S proteasome in Jurkat cell lysates, C-L activity (Homo sapiens)
value: 99
//
molecule: Cc1ccc(/C(=N/NS(=O)(=O)c2ccc([N+](=O)[O-])cc2)Sc2cc(Cl)c(C)cc2S(N)(=O)=O)cc1
target: 20S proteasome in Jurkat cell lysates, C-L activity (Homo sapiens)
value: 25
//
molecule: O=C1c2ccccc2C(=O)c2c(Nc3ccc(S(=O)(=O)N(CCO)CCO)cc3)ccc(O)c21
target: 20S proteasome in Jurkat cell lysates, C-L activity (Homo sapiens)
value: 74
